Reference source: patent US5336485A

- System: liver
- assay.method.text: CCl4 induced hepatotoxicity in rats (serum AST/ALT)
- Type: in vivo, rat
- stated.conditions: rats, serum enzyme levels
property: protection against CCl4 hepatotoxicity (in words)

compound	system.tested	observed
CC(C)CCC[C@@H](C)[C@H]1CC[C@H]2[C@@H]3CC=C4C[C@@H](O)CC[C@]4(C)[C@H]3CC[C@]12C [Cholesterol, reference compound]	liver	provided no protection
CC(=O)O[C@H]1CC[C@@]2(C)C(=CC[C@H]3[C@@H]4CC[C@H]([C@H](C)CCCC(C)C)[C@@]4(C)CC[C@@H]32)C1 [Cholesterol acetate, reference compound]	liver	provided no protection

###

- assay.method.text: Cytotoxicity of various toxic insults (A23187, cadmium, O2, doxorubicin, CCl4, hypoxia) in rat hepatocytes
- Assay type: cell-based
- stated.conditions: rat, hepatocytes; Control (vehicle only, no insult), 25 μM alpha-TS; read-out: % Cell Death
property: cytotoxicity at 25 µM

                                   molecule  observed
0  Cc1c(C)c2c(c(C)c1OC(=O)CCC(=O)O)CC[C@@](C)(CCC[C@H](C)CCC[C@H](C)CCCC(C)C)O2 [alpha-TS, d-alpha-tocopheryl succinate]       21%

###

- System: male Sprague-Dawley rats
- assay.method.text: CCl4 induced lethality in rats
- Assay type: in vivo, rat
- stated.conditions: 100 mg/kg, single dose 24 h prior, CCl4 […]
- Protocol: The in vivo effect of alpha-TS was tested by administering a lethal oral dose of carbon tetrachloride (CC14) to male Sprague-Dawley rats. In the experiment described in Table 3, a single dose of alpha-TS dissolved in peanut oil:ethanol (3:2) was given to male Sprague-Dawley rats. […] Survival was monitored for at least 7 days after the toxic insult. […] Several tocopherol and succinate analogs were tested for CCl4 induced lethality. […] Three to six animals were analyzed per treatment. […]
Where a name gives a salt, the structure may show the parent alone.
property: Days Survived After CCl4 Treatment (days)

molecule	uom	relational.operator	observed
COC(=O)CCC(=O)Oc1c(C)c(C)c2c(c1C)CCC(C)(CCCC(C)CCCC(C)CCCC(C)C)O2 (stereo not drawn) [methyl ester of alpha-TS, Alpha-Tocopherol Succinate Methyl Ester]	days	>	7
Cc1c(C)c2c(c(C)c1OC(=O)CCC(=O)O)CC[C@@](C)(CCC[C@H](C)CCC[C@H](C)CCCC(C)C)O2 [K + salt of Alpha-TS, Alpha-Tocopherol Succinate, K^+ Salt]	days	>	7
Cc1c(C)c2c(c(C)c1OP(=O)(O)O)CCC(C)(CCCC(C)CCCC(C)CCCC(C)C)O2 (racemic) [alpha-TP, dl-alpha-tocopheryl phosphate]	days	=	3
O=C(O)CCC(=O)O [Succinic Acid, reference compound]	days	=	2
Cc1c(C)c2c(c(C)c1OC(=O)CC(C)C(=O)O)CC[C@@](C)(CCC[C@H](C)CCC[C@H](C)CCCC(C)C)O2 (stereo partly drawn) [Alpha-Tocopherol 3-Methyl Succinate, alpha-tocopheryl 3-methyl succinate]	days	=	2
Cc1c(C)c2c(c(C)c1OC(=O)CCCC(=O)O)CCC(C)(CCCC(C)CCCC(C)CCCC(C)C)O2 (stereo not drawn) [Alpha-Tocopherol Glutarate, alpha-tocopherol monoglutarate]	days	=	2
CC(C)CCC[C@@H](C)[C@H]1CC[C@H]2[C@@H]3CC=C4C[C@@H](O)CC[C@]4(C)[C@H]3CC[C@]12C [Cholesterol, reference compound]	days	=	2
Cc1c(C)c2c(c(C)c1O)CC[C@@](C)(CCC[C@H](C)CCC[C@H](C)CCCC(C)C)O2 [alpha-T, d-alpha-tocopherol, reference compound]	days	=	3
CC(C)CCC[C@@H](C)[C@H]1CC[C@H]2[C@@H]3CC=C4C[C@@H](OC(=O)CCC(=O)O)CC[C@]4(C)[C@H]3CC[C@]12C [Cholesteryl Succinate]	days	>	7
